Where these numbers come from: ChEMBL document CHEMBL1154782

# Tested on: Klebsiella pneumoniae
# Assay Overview: Antibacterial activity against Klebsiella pneumoniae ATCC 700603 after 15 to 18 hrs under aerobic condition by modified broth microdilution method
# Type: functional
Where a SMILES comes first, the peptide text is derived from it. The star is where a group is joined. Boc = CC(C)(C)OC(=O)*
Quantity Name: MIC

Consider the following illustrative entries.
CC(C)(C)OC(=O)N[C@@H](Cc1c[nH]c(C2CCC2)n1)C(=O)N[C@@H](CCCNC(=N)N)C(=O)NCc1ccccc1 :: 200 µg/mL
COC(=O)[C@H](Cc1c[nH]cn1)NC(=O)[C@@H](N)Cc1c[nH]c2ccccc12 (H-Trp-His-OMe) :: > 200 µg/mL

Query block: Find MIC (Klebsiella pneumoniae) for the entry N=C(N)NCCC[C@H](NC(=O)[C@@H](N)Cc1c[nH]c(C2CCCCC2)n1)C(=O)NCc1ccccc1
Result block: 200 µg/mL

Query block: Record COC(=O)[C@H](CCCNC(=N)N)NC(=O)[C@H](Cc1c[nH]cn1)NC(=O)OC(C)(C)C (Boc-His-Arg-OMe) : what is its MIC with Klebsiella pneumoniae?
Result block: > 200 µg/mL

Query block: Field: MIC (Klebsiella pneumoniae). Entry: CC(C)(C)OC(=O)N[C@@H](Cc1c[nH]c2ccccc12)C(=O)N[C@@H](Cc1c[nH]c(C23CC4CC(CC(C4)C2)C3)n1)C(=O)NCc1ccccc1
Result block: 200 µg/mL

Query block: Query MIC on Klebsiella pneumoniae for COC(=O)[C@H](CCCNC(=N)N)NC(=O)[C@H](Cc1c[nH]c(C2CCC2)n1)NC(=O)OC(C)(C)C
Result block: 200 µg/mL

Query block: API: value(readout= MIC, system= Klebsiella pneumoniae, query= COC(=O)[C@H](Cc1c[nH]c(C2CCC2)n1)NC(=O)[C@H](Cc1c[nH]c2ccccc12)NC(=O)OC(C)(C)C )
Result block: > 200 µg/mL

Query block: # value lookup — system Klebsiella pneumoniae, readout MIC, item COC(=O)[C@H](Cc1c[nH]c(C23CC4CC(CC(C4)C2)C3)n1)NC(=O)[C@H](Cc1c[nH]c2ccccc12)NC(=O)OC(C)(C)C
Result block: > 200 µg/mL

Query block: # get_value(readout= MIC, system= Klebsiella pneumoniae) for COC(=O)[C@H](CCCNC(=N)N)NC(=O)[C@H](Cc1c[nH]c(C2CCCCC2)n1)NC(=O)OC(C)(C)C
Result block: > 200 µg/mL

Query block: Missing value: MIC, Klebsiella pneumoniae, entry N[C@@H](Cc1c[nH]c2ccccc12)C(=O)N[C@@H](Cc1c[nH]c(C2CCC2)n1)C(=O)NCc1ccccc1 . Fill in?
Result block: > 200 µg/mL

Query block: Under Klebsiella pneumoniae: MIC value of CC(C)(C)OC(=O)N[C@@H](Cc1c[nH]c(C23CC4CC(CC(C4)C2)C3)n1)C(=O)N[C@@H](CCCNC(=N)N)C(=O)NCc1ccccc1 ?
Result block: 100 µg/mL

Query block: Give Klebsiella pneumoniae MIC for COC(=O)[C@H](Cc1c[nH]c(C23CC4CC(CC(C4)C2)C3)n1)NC(=O)[C@@H](N)Cc1c[nH]c2ccccc12
Result block: 200 µg/mL

* * *

# Tested on: Staphylococcus epidermidis
# Assay Overview: Antibacterial activity against methicillin-resistant Staphylococcus epidermidis DSM 50160384
# Format: functional, organism-based
Where a SMILES comes first, the peptide text is derived from it. The star is where a group is joined. Boc = CC(C)(C)OC(=O)*; NHBn = c1ccc(CN*)cc1
# key: entry, value: log10 of IC50
Please interpret these as log10 of IC50 where IC50 is in µg/mL.

The cases that follow already have their log10 of IC50 on record.
CC(C)(C)OC(=O)N[C@@H](Cc1c[nH]c(C2CCC2)n1)C(=O)N[C@@H](CCCNC(=N)N)C(=O)NCc1ccccc1 :: 1.29
COC(=O)[C@H](CCCNC(=N)N)NC(=O)[C@@H](N)Cc1c[nH]c(C(C)C)n1 :: 0.73
COC(=O)[C@H](Cc1c[nH]c(C23CC4CC(CC(C4)C2)C3)n1)NC(=O)[C@H](Cc1c[nH]c2ccccc12)NC(=O)OC(C)(C)C :: 0.61

Query block: Query (molecule): CC(C)c1nc(C[C@H](N)C(=O)N[C@@H](CCCNC(=N)N)C(=O)NCc2ccccc2)c[nH]1 ; field requested: log10 of IC50
Result block: 1.11

Query block: I am curious: what log10 of IC50 value has been reported for CC(C)(C)OC(=O)N[C@@H](Cc1c[nH]c(C23CC4CC(CC(C4)C2)C3)n1)C(=O)N[C@@H](CCCNC(=N)N)C(=O)NCc1ccccc1 ?
Result block: 1.06

Query block: Looking for the measured log10 of IC50 of COC(=O)[C@H](Cc1c[nH]c(C2CCCCC2)n1)NC(=O)[C@H](Cc1c[nH]c2ccccc12)NC(=O)OC(C)(C)C , can you help?
Result block: 0.80

Query block: Entry COC(=O)[C@H](CCCNC(=N)N)NC(=O)[C@H](Cc1c[nH]c(C(C)(C)C)n1)NC(=O)OC(C)(C)C : reported log10 of IC50 = ?
Result block: 1.30

Query block: Quick one: log10 of IC50 of COC(=O)[C@H](Cc1c[nH]c(C(C)(C)C)n1)NC(=O)[C@H](Cc1c[nH]c2ccccc12)NC(=O)OC(C)(C)C ?
Result block: 0.91

Query block: Which value of log10 of IC50 has been reported for COC(=O)[C@H](Cc1c[nH]c(C2CCCCC2)n1)NC(=O)[C@@H](N)Cc1c[nH]c2ccccc12 in the records?
Result block: 1.10

Query block: Entry N=C(N)NCCC[C@H](NC(=O)[C@@H](N)Cc1c[nH]c(C2CCC2)n1)C(=O)NCc1ccccc1 : reported log10 of IC50 = ?
Result block: 0.60

Query block: Query: log10 of IC50; subject: N=C(N)NCCC[C@H](NC(=O)[C@@H](N)Cc1c[nH]c(C2CCCCC2)n1)C(=O)NCc1ccccc1
Result block: 0.00

Query block: I have this molecule here, N=C(N)NCCC[C@H](NC(=O)[C@@H](N)Cc1c[nH]cn1)C(=O)NCc1ccccc1 (H-His-Arg-NHBn) , and I need its recorded log10 of IC50.
Result block: 0.91

Query block: What value of measured log10 of IC50 is listed for CC(C)(C)OC(=O)N[C@@H](Cc1c[nH]cn1)C(=O)N[C@@H](CCCNC(=N)N)C(=O)NCc1ccccc1 (Boc-His-Arg-NHBn) ?
Result block: 0.94

Query block: // returns reported log10 of IC50 for input CC(C)(C)c1nc(C[C@H](NC(=O)[C@@H](N)Cc2c[nH]c3ccccc23)C(=O)NCc2ccccc2)c[nH]1
Result block: 0.97

Query block: GET /values?readout=log10 of IC50&item= COC(=O)[C@H](CCCNC(=N)N)NC(=O)[C@H](Cc1c[nH]c(C23CC4CC(CC(C4)C2)C3)n1)NC(=O)OC(C)(C)C
Result block: 0.84

Query block: I would be grateful if you could share the reported log10 of IC50 for COC(=O)[C@H](Cc1c[nH]c(C23CC4CC(CC(C4)C2)C3)n1)NC(=O)[C@@H](N)Cc1c[nH]c2ccccc12 .
Result block: 0.66

Query block: log10 of IC50 for CC(C)c1nc(C[C@H](NC(=O)OC(C)(C)C)C(=O)N[C@@H](CCCNC(=N)N)C(=O)NCc2ccccc2)c[nH]1 ?
Result block: 1.10

Query block: What log10 of IC50 value was documented for this molecule, CC(C)(C)OC(=O)N[C@@H](Cc1c[nH]c2ccccc12)C(=O)N[C@@H](Cc1c[nH]c(C2CCCCC2)n1)C(=O)NCc1ccccc1 ?
Result block: 1.38

Query block: Bench note: what log10 of IC50 did COC(=O)[C@H](CCCNC(=N)N)NC(=O)[C@@H](N)Cc1c[nH]c(C(C)(C)C)n1 show?
Result block: 0.40

* * *

# Tested on: Candida albicans
# Assay Overview: Antifungal activity against Candida albicans ATCC 10231 after 15 to 18 hrs under aerobic condition by modified broth microdilution method
# Type: functional
Where a SMILES comes first, the peptide text is derived from it. The star is where a group is joined. Boc = CC(C)(C)OC(=O)*; NHBn = c1ccc(CN*)cc1
Reported MIC by item:
Respond numerically; units are µg/mL and should not be typed.

As a guide, the following entries are already answered.
N=C(N)NCCC[C@H](NC(=O)[C@@H](N)Cc1c[nH]c(C23CC4CC(CC(C4)C2)C3)n1)C(=O)NCc1ccccc1 :: 50
N=C(N)NCCC[C@H](NC(=O)[C@@H](N)Cc1c[nH]cn1)C(=O)NCc1ccccc1 (H-His-Arg-NHBn) :: 200
N[C@@H](Cc1c[nH]c2ccccc12)C(=O)N[C@@H](Cc1c[nH]cn1)C(=O)NCc1ccccc1 (H-Trp-His-NHBn) :: 200
COC(=O)[C@H](Cc1c[nH]c(C2CCC2)n1)NC(=O)[C@@H](N)Cc1c[nH]c2ccccc12 :: 200
COC(=O)[C@H](Cc1c[nH]c(C23CC4CC(CC(C4)C2)C3)n1)NC(=O)[C@H](Cc1c[nH]c2ccccc12)NC(=O)OC(C)(C)C :: 200

Query block: Can you share its MIC? I mean this compound: CC(C)(C)OC(=O)N[C@@H](Cc1c[nH]c2ccccc12)C(=O)N[C@@H](Cc1c[nH]c(C23CC4CC(CC(C4)C2)C3)n1)C(=O)NCc1ccccc1
Result block: 200

Query block: Give the measured MIC of COC(=O)[C@H](CCCNC(=N)N)NC(=O)[C@@H](N)Cc1c[nH]c(C2CCCCC2)n1 .
Result block: 200

Query block: Please report the recorded MIC for CC(C)(C)OC(=O)N[C@@H](Cc1c[nH]c2ccccc12)C(=O)N[C@@H](Cc1c[nH]cn1)C(=O)NCc1ccccc1 (Boc-Trp-His-NHBn) .
Result block: 200

Query block: Find the recorded MIC belonging to COC(=O)[C@H](Cc1c[nH]cn1)NC(=O)[C@@H](N)Cc1c[nH]c2ccccc12 (H-Trp-His-OMe) and report it.
Result block: 200

Query block: Can you share its MIC? I mean this compound: COC(=O)[C@H](CCCNC(=N)N)NC(=O)[C@H](Cc1c[nH]c(C2CCCCC2)n1)NC(=O)OC(C)(C)C
Result block: 100

Query block: So what's the measured MIC for this one? N[C@@H](Cc1c[nH]c2ccccc12)C(=O)N[C@@H](Cc1c[nH]c(C2CCC2)n1)C(=O)NCc1ccccc1
Result block: 100

Query block: Given COC(=O)[C@H](Cc1c[nH]c(C2CCCCC2)n1)NC(=O)[C@H](Cc1c[nH]c2ccccc12)NC(=O)OC(C)(C)C , state its recorded MIC.
Result block: 200
